Molecular target: Histamine H3 receptor (Mus musculus)
Assay: In vivo antagonistic activity against histamine H3-receptor of Swiss mice brain after peroral administration
Format: functional, organism-based
Can you tell me ED50 for the items I'm about to list?

Endpoint output: ED50 of FC(F)(F)c1ccc(C(OCCCc2c[nH]cn2)c2ccccc2)cc1 (stereo not drawn) . Value?
> 10 mg/kg

Repeat for the following compound: "N=C(NCc1ccc(Cl)cc1)SCCCc1c[nH]cn1"
26 mg/kg

Repeat for the following compound: "c1ccc(COCCCc2c[nH]cn2)cc1"
> 10 mg/kg
